# credit: paper PMC11340408

The molecules listed here are annotated with their IC50.
Test system: MCF-7 cell line
TEST_NAME: MTT assay, breast cancer MCF-7 cell line
Format: cell-based, human
MEASUREMENT_PARAMETERS: Homo sapiens, MCF7, 48 h, read-out: IC50 against MCF-7
ASSAY_METRIC: IC50 (µM)

smiles=Cn1c(=O)c2c(nc(Oc3ccc(C(=O)/C=C/c4cccc([N+](=O)[O-])c4)cc3)n2C)n(C)c1=O assay_metric=IC50 relation_sign=> value_measured=500
smiles=COC(=O)c1ccc(/C=C/C(=O)c2ccc(Oc3nc4c(c(=O)n(C)c(=O)n4C)n3C)cc2)cc1 assay_metric=IC50 relation_sign== value_measured=34
smiles=Cn1c(=O)c2c(nc(Oc3ccc(C(=O)/C=C/c4ccccc4Cl)cc3)n2C)n(C)c1=O assay_metric=IC50 relation_sign== value_measured=108
smiles=Cn1c(=O)c2c(nc(Oc3ccc(/C=C/C(=O)c4ccc(Cl)cc4)cc3)n2C)n(C)c1=O assay_metric=IC50 relation_sign== value_measured=130
smiles=Cn1c(=O)c2c(nc(Oc3ccc(C(=O)/C=C/c4ccccc4)cc3)n2C)n(C)c1=O assay_metric=IC50 relation_sign== value_measured=18
smiles=COc1ccc(/C=C/C(=O)c2ccc(Oc3nc4c(c(=O)n(C)c(=O)n4C)n3C)cc2)c(OC)c1 assay_metric=IC50 relation_sign=> value_measured=500
smiles=Cn1c(=O)c2c(nc(Oc3ccc(/C=C/C(=O)c4ccc([N+](=O)[O-])cc4)cc3)n2C)n(C)c1=O assay_metric=IC50 relation_sign== value_measured=223
smiles=COc1ccccc1/C=C/C(=O)c1ccc(Oc2nc3c(c(=O)n(C)c(=O)n3C)n2C)cc1 assay_metric=IC50 relation_sign== value_measured=269
smiles=Cn1c(=O)c2c(nc(Oc3ccc(C(=O)/C=C/c4ccc(Cl)cc4)cc3)n2C)n(C)c1=O assay_metric=IC50 relation_sign== value_measured=35
smiles=COc1ccc(C(=O)/C=C/c2ccc(Oc3nc4c(c(=O)n(C)c(=O)n4C)n3C)cc2)cc1 assay_metric=IC50 relation_sign== value_measured=249
smiles=Cn1c(=O)c2c(nc(Oc3ccc(C(=O)/C=C/c4ccc(Cl)cc4Cl)cc3)n2C)n(C)c1=O assay_metric=IC50 relation_sign== value_measured=230
smiles=Cn1c(=O)c2c(nc(Oc3ccc(/C=C/C(=O)c4cccc([N+](=O)[O-])c4)cc3)n2C)n(C)c1=O assay_metric=IC50 relation_sign=> value_measured=500
smiles=Cc1ccc(C(=O)/C=C/c2ccc(Oc3nc4c(c(=O)n(C)c(=O)n4C)n3C)cc2)cc1 assay_metric=IC50 relation_sign=> value_measured=500
smiles=Cn1c(=O)c2c(nc(Oc3ccc(C(=O)/C=C/c4c(Cl)cccc4Cl)cc3)n2C)n(C)c1=O assay_metric=IC50 relation_sign== value_measured=181
smiles=Cc1ccc(/C=C/C(=O)c2ccc(Oc3nc4c(c(=O)n(C)c(=O)n4C)n3C)cc2)cc1 assay_metric=IC50 relation_sign== value_measured=38
